Target: T1, N-terminal domain of hCD73 (residues 26-336 of human CD73), His-tagged (human, UniProt P21589 26-336)
T1 construct: also called N-hCD73; N-hCD73-his
T1 sequence: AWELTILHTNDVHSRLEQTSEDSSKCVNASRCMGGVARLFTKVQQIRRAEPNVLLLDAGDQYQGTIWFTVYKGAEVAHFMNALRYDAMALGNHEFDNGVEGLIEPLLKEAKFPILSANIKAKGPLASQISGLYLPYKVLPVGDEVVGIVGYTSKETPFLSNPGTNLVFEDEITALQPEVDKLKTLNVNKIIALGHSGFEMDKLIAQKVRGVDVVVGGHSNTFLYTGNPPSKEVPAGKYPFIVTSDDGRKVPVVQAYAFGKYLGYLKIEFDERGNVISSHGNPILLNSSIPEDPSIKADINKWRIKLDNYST
Test: SPR, mAb captured on protein A
propertyLabel: Kd (nM)
A number alone suffices; assume nM.

### Prompt Recorded Kd of 5F8 (antibody, human IgG1, kappa, V domains shown, IgG1za from hybridoma; predominant light chain VK1, VK2 also expressed; also called 5F8-1) VH: EVQLVESGGGLVQPGGSLRLSCAASGFTFSSYWMHWVRQAPGKGLVWVSRIISDGSSTGYADSVKGRFTISRDNAKNTLYLQMNSLRAEDTAVYYCAREFSSGWYFDYWGQGTLVTVSS VL: AIQLTQSPSSLSASVGDRVTITCRASQGISSALAWYQQKPGKAPKLLIYDASSLESGVPSRFSGSGSGTDFTLTISSLQPEDFATYYCQQFSSYPRTFGQGTKVEIKR , please.
### Response 41

### Prompt Subsequent entry: 7A11 (antibody, human IgG1, kappa, V domains shown, IgG1za from hybridoma; also called 7A11-1) VH: EVQLVESGGGLVQTGRSLRLSCAASGFTFDDYAMHWVRQAPGKGLEWVSDISWNSDIIGYADSVKGRFTISRDNAKNSLYLQMNSLRAEDTALYYCAKDIYGSGSSFFDYWGQGILVTVSS VL: DIQMTQSPSSLSASVGDRVTITCRASQYISSWLAWYQQKPEKAPKSLIYAASSLQSGVPSRFSGSGSGTDFTLTISSLQPEDFATYYCQQYHSYPPTFGQGTRLEIKR
### Response 0.43

### Prompt Field entry: 24H2 (antibody, human IgG4, kappa, V domains shown, also called 24H2-1) VH: QVQLVESGGGVVQPGRSLRLSCAASGFTFSNYGMHWVRQAPGKGLEWVAVIWYDGGNKYYADSVKGRFTISRDNSKNTLFLQMNSLRAEDTAVYYCARGGSSWYPDAFDIWGQGTMVTVSS VL: DIQMTQSPSSLSASVGDRVTITCRASQGISSWLAWYQQKPEKAPKSLIYAASSLQSGVPSRFSGSGSGTDFTLTISSLQPEDFATYYCQQYNSYPLTFGGGTKVEIKR
### Response 14

### Prompt Query 10D2 (antibody, human IgG4, kappa, V domains shown, also called 10D2-2) VH: QVQLVESGGGVVQPGRSLRLSCAASGFTFSNYGLHWVRQAPGKGLEWVAVIRYDGSNKYYADSVKGRFTISRDNSKNTLYLQMSSLRAEDTAVYYCARGGSSWYPDGLDVWGQGTTVTVSS VL: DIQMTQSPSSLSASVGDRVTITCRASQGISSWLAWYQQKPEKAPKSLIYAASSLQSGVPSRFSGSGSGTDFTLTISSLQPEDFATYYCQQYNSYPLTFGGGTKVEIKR next
### Response 1.6
